protocol_notes: Lymph node localization of AMP adjuvants in female BALB/c mice (LC-MS)
Format: in vivo
condition_set: mouse, inguinal lymph node, 2 nmol intramuscular, 4 h post injection, read-out: concentration in the inguinal lymph node
measurement_kind: concentration at 4 h (ng/g)
The reply should contain only the number, in ng/g.

Query block: Need concentration at 4 h, item CCCCc1nc2c(N)nc3cc(CCCN4CCN(C(=O)CCOCCOCCOCCOCCOCCOCCOCCOCCOCCOCCOCCOCCOCCOCCOCCOCCOCCOCCOCCOCCOCCOCCOCCOCCNC(=O)CCOCCOCCOCCOCCNC(=O)CCCOc5c(C)c(C)c6c(c5C)CC[C@@](C)(CCC[C@H](C)CCC[C@H](C)CCCC(C)C)O6)CC4)ccc3c2n1CC(C)(CO)CO [Compound 2]
Result block: 16600

* * *

tested_system: UniProt:Q9NYK1
protocol_notes: hTLR7 in-vitro functional assay (HEK-Blue hTLR7 SEAP reporter)
condition_set: HEK-Blue hTLR7 cells, overnight incubation
measurement_kind: pEC50
Please note pEC50 is a logarithmic value: minus log10 of concentration in mol/L. Answer with that number alone.

Please review the following examples before continuing.
CCCCc1nc2c(N)nc3cc(CCCN4CCN(C(=O)CCOCCOCCOCCOCCOCCOCCOCCOCCOCCOCCOCCOCCOCCOCCOCCOCCOCCOCCOCCOCCOCCOCCOCCOCCNC(=O)CCOCCOCCOCCOCCNC(=O)O[C@H]5CC[C@@]6(C)C(=CC[C@H]7[C@@H]8CC[C@H]([C@H](C)CCCC(C)C)[C@@]8(C)CC[C@@H]76)C5)CC4)ccc3c2n1CC(C)(CO)CO : 6.91
CCOCc1nc2c(N)nc3cc(CCCN4CCN(C(=O)CCOCCOCCOCCOCCOCCOCCOCCOCCOCCOCCOCCOCCOCCOCCOCCOCCOCCOCCOCCOCCOCCOCCOCCOCCOCCOCCOCCOCCOCCOCCOCCOCCOCCOCCOCCOCCNC(=O)CCOCCOCCOCCOCCNC(=O)O[C@H]5CC[C@@]6(C)C(=CC[C@H]7[C@@H]8CC[C@H]([C@H](C)CCCC(C)C)[C@@]8(C)CC[C@@H]76)C5)CC4)ccc3c2n1CC(C)(CO)CO : 7.22

Query block: Need pEC50, item `CCCCc1nc2c(N)nc3cc(CCCN4CCN(C(=O)OCc5ccc(NC(=O)[C@H](CCCNC(N)=O)NC(=O)[C@@H](NC(=O)COCCOCCNC(=O)O[C@H]6CC[C@@]7(C)C(=CC[C@H]8[C@@H]9CC[C@H]([C@H](C)CCCC(C)C)[C@@]9(C)CC[C@@H]87)C6)C(C)C)cc5)CC4)ccc3c2n1CC(C)(CO)CO`
Result block: 5.72

* * *

tested_system: human toll like receptor 8 (hTLR8) (Homo sapiens, UniProt Q9NR97)
Sequence (Q9NR97 27-1041): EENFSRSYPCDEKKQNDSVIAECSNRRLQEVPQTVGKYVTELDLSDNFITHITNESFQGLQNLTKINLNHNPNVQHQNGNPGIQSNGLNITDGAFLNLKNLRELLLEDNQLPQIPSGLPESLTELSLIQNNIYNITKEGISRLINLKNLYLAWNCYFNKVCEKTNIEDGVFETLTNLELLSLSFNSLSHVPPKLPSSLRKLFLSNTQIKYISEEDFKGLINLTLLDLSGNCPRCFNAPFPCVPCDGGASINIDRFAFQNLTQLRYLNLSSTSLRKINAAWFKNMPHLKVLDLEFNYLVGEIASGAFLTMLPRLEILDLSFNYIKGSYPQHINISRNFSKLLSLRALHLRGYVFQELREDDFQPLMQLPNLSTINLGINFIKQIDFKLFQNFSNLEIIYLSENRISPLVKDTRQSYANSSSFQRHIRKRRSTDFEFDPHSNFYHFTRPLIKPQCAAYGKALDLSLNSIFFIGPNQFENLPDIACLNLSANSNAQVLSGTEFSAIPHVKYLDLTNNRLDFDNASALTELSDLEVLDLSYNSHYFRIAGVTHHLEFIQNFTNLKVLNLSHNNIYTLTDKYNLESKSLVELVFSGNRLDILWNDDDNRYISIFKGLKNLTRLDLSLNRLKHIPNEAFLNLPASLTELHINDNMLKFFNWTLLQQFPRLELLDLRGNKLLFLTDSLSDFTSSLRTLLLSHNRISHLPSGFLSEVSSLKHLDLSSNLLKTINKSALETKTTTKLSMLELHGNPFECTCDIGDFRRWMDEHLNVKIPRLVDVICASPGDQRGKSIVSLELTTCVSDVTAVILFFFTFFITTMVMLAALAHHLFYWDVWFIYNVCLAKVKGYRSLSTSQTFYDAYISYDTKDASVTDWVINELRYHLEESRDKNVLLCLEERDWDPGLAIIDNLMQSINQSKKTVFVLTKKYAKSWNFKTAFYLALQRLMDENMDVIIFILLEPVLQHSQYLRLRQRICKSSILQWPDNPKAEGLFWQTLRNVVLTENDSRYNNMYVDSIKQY
protocol_notes: hTLR8 in-vitro functional assay (HEK-Blue hTLR8 SEAP reporter)
condition_set: HEK-Blue hTLR8 cells, overnight incubation
measurement_kind: EC50 (µM)
The reply should contain only the number, in µM.

CCCCc1nc2c(N)nc3cc(CCCN4CCN(C(=O)CCOCCOCCOCCOCCNC(=O)O[C@H]5CC[C@@]6(C)C(=CC[C@H]7[C@@H]8CC[C@H]([C@H](C)CCCC(C)C)[C@@]8(C)CC[C@@H]76)C5)CC4)ccc3c2n1CC(C)(CO)CO [Compound 12] : 19.6
CCCCc1nc2c(N)nc3cc(CCCN4CCN(C(=O)OCc5ccc(NC(=O)[C@H](CCCNC(N)=O)NC(=O)[C@@H](NC(=O)COCCOCCNC(=O)O[C@H]6CC[C@@]7(C)C(=CC[C@H]8[C@@H]9CC[C@H]([C@H](C)CCCC(C)C)[C@@]9(C)CC[C@@H]87)C6)C(C)C)cc5)CC4)ccc3c2n1CC(C)(CO)CO [Compound 28] : 4.48
CCCCc1nc2c(N)nc3cc(CCCN4CCN(C(=O)CCOCCOCCOCCOCCOCCOCCOCCOCCOCCOCCOCCOCCNC(=O)CCOCCOCCOCCOCCNC(=O)O[C@H]5CC[C@@]6(C)C(=CC[C@H]7[C@@H]8CC[C@H]([C@H](C)CCCC(C)C)[C@@]8(C)CC[C@@H]76)C5)CC4)ccc3c2n1CC(C)(CO)CO [Compound 6] : 5.08

Query block: Need EC50, item CCCCc1nc2c(N)nc3cc(CCCN4CCN(C(=O)CCOCCOCCOCCOCCOCCOCCOCCOCCNC(=O)O[C@H]5CC[C@@]6(C)C(=CC[C@H]7[C@@H]8CC[C@H]([C@H](C)CCCC(C)C)[C@@]8(C)CC[C@@H]76)C5)CC4)ccc3c2n1CC(C)(CO)CO [Compound 19]
Result block: 20.2

* * *

protocol_notes: Lymph node localization of AMP adjuvants in female BALB/c mice (LC-MS)
Assay type: in vivo
condition_set: mouse, plasma, 2 nmol intramuscular, 48 h post injection, read-out: concentration in plasma
measurement_kind: concentration at 48 h

Query block: Need concentration at 48 h, item CCCCc1nc2c(N)nc3cc(CCCN4CCN(C(=O)CCOCCOCCOCCOCCOCCOCCOCCOCCOCCOCCOCCOCCOCCOCCOCCOCCOCCOCCOCCOCCOCCOCCOCCOCCNC(=O)CCOCCOCCOCCOCCNC(=O)CCCOc5c(C)c(C)c6c(c5C)CC[C@@](C)(CCC[C@H](C)CCC[C@H](C)CCCC(C)C)O6)CC4)ccc3c2n1CC(C)(CO)CO [Compound 2]
Result block: < 25 ng/mL

* * *

protocol_notes: Lymph node localization of AMP adjuvants in female BALB/c mice (LC-MS)
Type: in vivo
condition_set: mouse, popliteal lymph node, 2 nmol intramuscular, 48 h post injection, read-out: concentration in the popliteal lymph node
Method: Test compounds were prepared at a concentration of 40 uM in phosphate-buffered saline (pH 7.4)+0.1% polysorbate 80, and 50 uL (2 nmol) of each was administered by intramuscular injection into the right hind leg muscle (gastrocnemius) of female BALB/c mice. […] AMP adjuvant concentrations in each sample were quantified by liquid chromatography-mass spectrometry (LC-MS). […]
measurement_kind: concentration at 48 h (ng/g)
The reply should contain only the number, in ng/g.

Query block: Need concentration at 48 h, item `CCCCc1nc2c(N)nc3cc(CCCN4CCN(C(=O)CCOCCOCCOCCOCCOCCOCCOCCOCCOCCOCCOCCOCCOCCOCCOCCOCCOCCOCCOCCOCCOCCOCCOCCOCCNC(=O)CCOCCOCCOCCOCCNC(=O)CCCOc5c(C)c(C)c6c(c5C)CC[C@@](C)(CCC[C@H](C)CCC[C@H](C)CCCC(C)C)O6)CC4)ccc3c2n1CC(C)(CO)CO`
Result block: 23200

* * *

tested_system: UniProt:Q9NR97
protocol_notes: hTLR8 in-vitro functional assay (HEK-Blue hTLR8 SEAP reporter)
condition_set: HEK-Blue hTLR8 cells, overnight incubation
measurement_kind: EC50 (nM)
The reply should contain only the number, in nM.

CCCCc1nc2c(N)nc3cc(CCCN4CCN(C(=O)CCOCCOCCOCCOCCOCCOCCOCCOCCOCCOCCOCCOCCOCCOCCOCCOCCOCCOCCOCCOCCOCCOCCOCCOCCOCCOCCOCCOCCOCCOCCOCCOCCOCCOCCOCCOCCNC(=O)CCOCCOCCOCCOCCNC(=O)CCCOc5c(C)c(C)c6c(c5C)CC[C@@](C)(CCC[C@H](C)CCC[C@H](C)CCCC(C)C)O6)CC4)ccc3c2n1CC(C)(CO)CO [Compound 24] : 2380
CCCCc1nc2c(N)nc3cc(CCCN4CCN(CCCOCCOCCOCCOCCOCCOCCOCCOCCOCCOCCOCCOCCOCCOCCOCCOCCNC(=O)O[C@H]5CC[C@@]6(C)C(=CC[C@H]7[C@@H]8CC[C@H]([C@H](C)CCCC(C)C)[C@@]8(C)CC[C@@H]76)C5)CC4)ccc3c2n1CC(C)(CO)CO [Compound 14] : 22600

// next item, EC50 requested
Query block: Need EC50, item CCCCc1nc2c(N)nc3cc(CCCN4CCN(C(=O)CCOCCOCCOCCOCCOCCOCCOCCOCCOCCOCCOCCOCCOCCOCCOCCOCCOCCOCCOCCOCCOCCOCCOCCOCCOCCOCCOCCOCCOCCOCCOCCOCCOCCOCCOCCOCCNC(=O)CCOCCOCCOCCOCCNC(=O)O[C@H]5CC[C@@]6(C)C(=CC[C@H]7[C@@H]8CC[C@H]([C@H](C)CCCC(C)C)[C@@]8(C)CC[C@@H]76)C5)CC4)ccc3c2n1CC(C)(CO)CO [Compound 3]
Result block: 339

* * *

Listed next: entries and their corresponding EC50.
tested_system: human toll like receptor 7 (hTLR7) (Homo sapiens, UniProt Q9NYK1)
Sequence (Q9NYK1 27-1049): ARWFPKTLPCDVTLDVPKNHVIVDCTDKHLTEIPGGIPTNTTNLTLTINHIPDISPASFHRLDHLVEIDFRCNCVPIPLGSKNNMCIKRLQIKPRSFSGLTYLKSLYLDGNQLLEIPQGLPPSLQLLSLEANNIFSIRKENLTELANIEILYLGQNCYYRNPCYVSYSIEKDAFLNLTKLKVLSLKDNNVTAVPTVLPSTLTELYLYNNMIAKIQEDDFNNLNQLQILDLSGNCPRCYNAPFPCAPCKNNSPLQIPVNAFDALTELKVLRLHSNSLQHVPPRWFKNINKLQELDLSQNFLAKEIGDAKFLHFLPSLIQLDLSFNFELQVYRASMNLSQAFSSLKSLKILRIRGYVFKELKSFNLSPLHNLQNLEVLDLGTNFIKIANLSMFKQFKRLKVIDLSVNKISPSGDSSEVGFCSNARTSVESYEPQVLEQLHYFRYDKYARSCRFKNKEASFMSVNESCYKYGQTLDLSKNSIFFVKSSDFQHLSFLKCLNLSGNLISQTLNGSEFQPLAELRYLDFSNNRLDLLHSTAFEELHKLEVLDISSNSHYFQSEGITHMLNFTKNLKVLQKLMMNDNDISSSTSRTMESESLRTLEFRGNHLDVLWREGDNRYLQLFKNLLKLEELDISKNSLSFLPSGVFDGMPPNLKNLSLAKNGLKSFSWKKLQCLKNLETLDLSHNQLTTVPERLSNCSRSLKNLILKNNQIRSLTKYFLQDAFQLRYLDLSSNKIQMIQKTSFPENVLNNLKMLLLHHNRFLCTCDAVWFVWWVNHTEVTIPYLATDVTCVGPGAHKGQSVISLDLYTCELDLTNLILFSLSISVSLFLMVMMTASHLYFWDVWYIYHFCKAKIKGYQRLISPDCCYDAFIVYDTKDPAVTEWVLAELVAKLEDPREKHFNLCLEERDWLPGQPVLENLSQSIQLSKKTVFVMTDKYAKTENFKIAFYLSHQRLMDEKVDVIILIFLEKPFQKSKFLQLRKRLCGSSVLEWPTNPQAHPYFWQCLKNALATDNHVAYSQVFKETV
protocol_notes: hTLR7 in-vitro functional assay (HEK-Blue hTLR7 SEAP reporter)
condition_set: HEK-Blue hTLR7 cells, overnight incubation
The reply should contain only the number, in nM.

CCCCc1nc2c(N)nc3cc(CCCN4CCN(CCCOCCOCCOCCOCCOCCOCCOCCOCCOCCOCCOCCOCCOCCOCCOCCOCCOCCOCCOCCOCCOCCOCCOCCOCCNC(=O)CCOCCOCCOCCOCCNC(=O)O[C@H]5CC[C@@]6(C)C(=CC[C@H]7[C@@H]8CC[C@H]([C@H](C)CCCC(C)C)[C@@]8(C)CC[C@@H]76)C5)CC4)ccc3c2n1CC(C)(CO)CO [Compound 17] : 282

// next item, EC50 requested
Query block: Lab note: need EC50 with human toll like receptor 7 (hTLR7) (Homo sapiens, UniProt Q9NYK1) for entry CCCCc1nc2c(N)nc3cc(CCCN4CCN(CCCOCCOCCNC(=O)O[C@H]5CC[C@@]6(C)C(=CC[C@H]7[C@@H]8CC[C@H]([C@H](C)CCCC(C)C)[C@@]8(C)CC[C@@H]76)C5)CC4)ccc3c2n1CC(C)(CO)CO [Compound 18] , please look it up.
Result block: 288
